# target-desc: His-GST-TVMV-hRIPK1 (1-324) (Homo sapiens (Human))
# Sequence (Q13546 1-324): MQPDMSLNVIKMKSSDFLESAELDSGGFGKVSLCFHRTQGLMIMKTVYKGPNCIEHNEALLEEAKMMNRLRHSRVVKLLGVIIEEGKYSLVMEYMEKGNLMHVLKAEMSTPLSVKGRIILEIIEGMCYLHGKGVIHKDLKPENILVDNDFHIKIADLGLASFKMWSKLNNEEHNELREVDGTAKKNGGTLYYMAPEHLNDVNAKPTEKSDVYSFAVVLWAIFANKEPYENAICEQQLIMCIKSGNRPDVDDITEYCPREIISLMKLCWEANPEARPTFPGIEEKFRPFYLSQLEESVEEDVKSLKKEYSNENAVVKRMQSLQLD
# experimental-protocol: RIPK1 HTRF Binding Assay
# condition-set: read-out: RIPK1 HTRF (IC50); FRET probe displacement, 1 h at rt
Counter-ions that a name gives are not always drawn.
IC50 less than 10 nM is t; IC50 greater than or equal to 10 nM is f.

Task item: Threshold test, IC50 < 10 nM: CNC(=O)c1n[nH]c2cc(-c3cnc(OC)c(C(=O)NCC4CCCC4(C)C)c3)ccc12 (stereo not shown) [Example 116]
Reply: t

Task item: Hello, I'm reviewing records and need to know if IC50 of CNC(=O)c1n[nH]c2cc(-c3cnc(OC)c(C(=O)NCC4CCCOC4C(C)(C)C)c3)ccc12 (stereo not shown) [Example 83] is below 10 nM. Could you check?
Reply: t

Task item: Is 10 nM strictly greater than the molecule's reported IC50? molecule: CNC(=O)c1n[nH]c2cc(-c3cnc(OC)c(C(=O)NC4CCCC(C(=O)N(C)C)C4)c3)ccc12 (stereo not shown) [Example 120]
Reply: f

Task item: Dear reviewer, please state whether [2H]C([2H])([2H])NC(=O)c1n[nH]c2cc(-c3cnc(OC([2H])([2H])[2H])c(C(=O)N[C@@H]4CN(C(=O)C5CC(F)(F)C5)C[C@@H]4F)c3)ccc12 [Example 12] has IC50 strictly beneath 10 nM.
Reply: f

Task item: Report whether reported IC50 is lower than 10 nM (strictly) for [2H]C([2H])([2H])Oc1ncc(-c2ccc3c(C(=O)NC([2H])([2H])C([2H])([2H])[2H])n[nH]c3c2)cc1C(=O)N[C@H](C)c1ccccc1OC(F)(F)F [Example 2]
Reply: t

Task item: Bench note: check whether CNC(=O)c1n[nH]c2cc(-c3cc(C(=O)NC(C)c4cccc(OC(F)(F)F)c4)c(C)nc3C)ccc12 (single isomer, unassigned) [Example 163] shows IC50 below 10 nM
Reply: f

Task item: Field: below-cutoff. Rule: recorded IC50 strictly less than 10 nM. Subject: CCN(CC)C1CCC(NC(=O)c2n[nH]c3cc(-c4cnc(OC)c(C(=O)NCc5ccccc5OC(F)(F)F)c4)ccc23)CC1 (stereo not shown) [Example 184, TFA]
Reply: t

Task item: Bench note: check whether [2H]C([2H])([2H])Oc1ncc(-c2ccc3c(C(=O)NC4CC(F)(F)C4)n[nH]c3c2)cc1C(=O)N[C@@H]1CN(C(=O)C2CC(F)(F)C2)C[C@@H]1F [Example 191] shows IC50 below 10 nM
Reply: f

Task item: Take the molecule [2H]C([2H])([2H])NC(=O)c1n[nH]c2cc(-c3cnc(OC([2H])([2H])[2H])c(C(=O)N[C@H](C)c4cccc(C(F)(F)F)c4)c3)ccc12 [Example 3] and say whether its IC50 is less than 10 nM.
Reply: f

Task item: Hi there! Is IC50 for CNC(=O)c1n[nH]c2cc(-c3cnc(OC)c(C(=O)NCc4ccccc4NC(=O)OC(C)(C)C)c3)ccc12 [Example 73] below 10 nM, do you know?
Reply: t

Task item: Hi there! Is IC50 for CCNC(=O)c1n[nH]c2cc(-c3cnc(OC)c(C(=O)N[C@H](C)c4cccc(OC(F)(F)F)c4)c3)ccc12 [Example 232] below 10 nM, do you know?
Reply: f

Task item: API: query returns whether the molecule falls strictly under 10 nM in IC50. Query: [2H]C([2H])([2H])C([2H])([2H])NC(=O)c1n[nH]c2cc(-c3cnc(OC)c(C(=O)NCc4ccccc4OC(F)(F)F)c3)ccc12 [Example 183]
Reply: t

Task item: Determine whether this molecule shows IC50 lower than 10 nM (ties excluded): CCN(CC1CCC1)C(=O)C1CCCC(NC(=O)c2cc(-c3ccc4c(C(=O)NC)n[nH]c4c3)cnc2OC)C1 (stereo not shown) [Example 124]
Reply: f

Task item: Input CNC(=O)c1n[nH]c2cc(-c3cnc(OC)c(C(=O)N[C@@H](C)CC(=O)OC(C)(C)C)c3)cc(F)c12 [Example 146] ; condition: IC50 strictly below 10 nM. Does it hold?
Reply: f

Task item: Is IC50 strictly under 10 nM for the entry CNC(=O)c1n[nH]c2cc(-c3cnc(OC)c(C(=O)NCCC(=O)OC(C)(C)C)c3)ccc12 [Example 74] ?
Reply: f

Task item: Could you please tell me whether IC50 recorded for COc1ncc(-c2ccc3c(C(=O)NC4CC4)n[nH]c3c2)cc1C(=O)N[C@@H]1CN(C(=O)C2CCC(F)(F)C2)C[C@@H]1F (stereo partly shown) [Example 199, TFA] is less than 10 nM?
Reply: f

Task item: Hello, is IC50 of the following molecule strictly smaller than 10 nM? [2H]C([2H])([2H])NC(=O)c1n[nH]c2cc(-c3cnc(OC)c(C(=O)NCC(C)(C)C(=O)OC(C)(C)C)c3)ccc12 [Example 149]
Reply: f

Task item: Does CNC(=O)c1n[nH]c2cc(-c3cnc(OC)c(C(=O)NCc4cc(OC(F)(F)F)ccc4F)c3)ccc12 [Example 137] have IC50 strictly under 10 nM?
Reply: t

Task item: Lab note: confirm whether the reported IC50 for this molecule is below 10 nM, equality not counting. molecule: [2H]C([2H])([2H])NC(=O)c1n[nH]c2cc(-c3cnc(OC)c(C(=O)NC(C)c4ccccc4OC(F)(F)F)c3)ccc12 (stereo not shown) [Example 152]
Reply: f
